Conditions: 293.4 K; 101.33 kPa; Liquid; Pulse-echo method
Measured speed of sound, listed per entry.

| molecule | speed of sound, m/s |
| --- | --- |
| CC(C)C(=O)[O-].C[NH2+]CCO [2-hydroxy-N-methylethanaminium isobutyrate] | 1624.8 |
| C[NH2+]CCO.O=C[O-] [2-hydroxy-N-methylethanaminium formate] | 1824.6 |
| CCCCC(=O)[O-].C[NH2+]CCO [2-hydroxy-N-methylethanaminium pentanoate] | 1563.9 |
| CCCC(=O)[O-].C[NH2+]CCO [N-methyl-2-hydroxyethylammonium butanoate] | 1629.8 |
| CCC(=O)[O-].C[NH2+]CCO [2-hydroxy-N-methylethanaminium propionate] | 1704.1 |

* * *

Conditions: 283.65 K; 101.33 kPa; Liquid; Pulse-echo method

| molecule | speed of sound, m/s |
| --- | --- |
| CCCC(=O)[O-].C[NH2+]CCO [N-methyl-2-hydroxyethylammonium butanoate] | 1663 |
| CCC(=O)[O-].C[NH2+]CCO [2-hydroxy-N-methylethanaminium propionate] | 1734.2 |
| CCCCC(=O)[O-].C[NH2+]CCO [2-hydroxy-N-methylethanaminium pentanoate] | 1596.6 |
| CC(C)C(=O)[O-].C[NH2+]CCO [2-hydroxy-N-methylethanaminium isobutyrate] | 1653.2 |
| C[NH2+]CCO.O=C[O-] [2-hydroxy-N-methylethanaminium formate] | 1843.8 |

* * *

Conditions: 335.91 K; 101.33 kPa; Liquid; Vibrating tube method
recorded_endpoint: mass density (kg/m3)

| compound | endpoint_result |
| --- | --- |
| C[NH2+]CCO.O=C[O-] [2-hydroxy-N-methylethanaminium formate] | 1107.54 |
| CC(=O)[O-].C[NH2+]CCO [N-methyl-2-hydroxyethylammonium acetate] | 1077.6 |
| CCCCC(=O)[O-].C[NH2+]CCO [2-hydroxy-N-methylethanaminium pentanoate] | 990.295 |
| CC(C)C(=O)[O-].C[NH2+]CCO [2-hydroxy-N-methylethanaminium isobutyrate] | 1018.38 |
| CCCC(=O)[O-].C[NH2+]CCO [N-methyl-2-hydroxyethylammonium butanoate] | 1013.3 |
| CCC(=O)[O-].C[NH2+]CCO [2-hydroxy-N-methylethanaminium propionate] | 1046.13 |

* * *

Settings: 311.91 K; 101.33 kPa; Liquid; Pulse-echo method

| compound | speed of sound [m/s] |
| --- | --- |
| CCCCC(=O)[O-].C[NH2+]CCO [2-hydroxy-N-methylethanaminium pentanoate] | 1506 |
| CCC(=O)[O-].C[NH2+]CCO [2-hydroxy-N-methylethanaminium propionate] | 1649.4 |
| CC(C)C(=O)[O-].C[NH2+]CCO [2-hydroxy-N-methylethanaminium isobutyrate] | 1572.5 |
| C[NH2+]CCO.O=C[O-] [2-hydroxy-N-methylethanaminium formate] | 1788.5 |
| CCCC(=O)[O-].C[NH2+]CCO [N-methyl-2-hydroxyethylammonium butanoate] | 1571.4 |

* * *

Conditions: 313.16 K; 101.33 kPa; Liquid; Vibrating tube method
recorded_endpoint: mass density (kg/m3)

| molecule | recorded_endpoint | endpoint_result |
| --- | --- | --- |
| CCC(=O)[O-].C[NH2+]CCO [2-hydroxy-N-methylethanaminium propionate] | mass density | 1061.5 |
| CC(C)C(=O)[O-].C[NH2+]CCO [2-hydroxy-N-methylethanaminium isobutyrate] | mass density | 1033.66 |
| C[NH2+]CCO.O=C[O-] [2-hydroxy-N-methylethanaminium formate] | mass density | 1119.87 |
| CC(=O)[O-].C[NH2+]CCO [N-methyl-2-hydroxyethylammonium acetate] | mass density | 1091.78 |
| CCCCC(=O)[O-].C[NH2+]CCO [2-hydroxy-N-methylethanaminium pentanoate] | mass density | 1006.12 |
| CCCC(=O)[O-].C[NH2+]CCO [N-methyl-2-hydroxyethylammonium butanoate] | mass density | 1029.14 |

* * *

Settings: 324.41 K; 101.33 kPa; Liquid; Pulse-echo method
± gives the expanded uncertainty stated by the source.
Measured speed of sound, listed per entry.
recorded_endpoint: speed of sound

| compound | recorded_endpoint | endpoint_result |
| --- | --- | --- |
| CC(C)C(=O)[O-].C[NH2+]CCO [2-hydroxy-N-methylethanaminium isobutyrate] | speed of sound | 1537 ± 2.1 m/s |
| CCC(=O)[O-].C[NH2+]CCO [2-hydroxy-N-methylethanaminium propionate] | speed of sound | 1612.2 ± 2.1 m/s |
| CCCCC(=O)[O-].C[NH2+]CCO [2-hydroxy-N-methylethanaminium pentanoate] | speed of sound | 1467.7 ± 2.1 m/s |
| C[NH2+]CCO.O=C[O-] [2-hydroxy-N-methylethanaminium formate] | speed of sound | 1764.3 ± 2.2 m/s |
| CCCC(=O)[O-].C[NH2+]CCO [N-methyl-2-hydroxyethylammonium butanoate] | speed of sound | 1532.3 ± 2.1 m/s |

* * *

Settings: 280.4 K; 101.33 kPa; Liquid; Vibrating tube method

| compound | mass density [kg/m3] |
| --- | --- |
| CC(=O)[O-].C[NH2+]CCO [N-methyl-2-hydroxyethylammonium acetate] | 1111.48 |
| CC(C)C(=O)[O-].C[NH2+]CCO [2-hydroxy-N-methylethanaminium isobutyrate] | 1054.68 |
| CCC(=O)[O-].C[NH2+]CCO [2-hydroxy-N-methylethanaminium propionate] | 1082.82 |
| CCCCC(=O)[O-].C[NH2+]CCO [2-hydroxy-N-methylethanaminium pentanoate] | 1028.18 |
| CCCC(=O)[O-].C[NH2+]CCO [N-methyl-2-hydroxyethylammonium butanoate] | 1051.21 |
| C[NH2+]CCO.O=C[O-] [2-hydroxy-N-methylethanaminium formate] | 1138.16 |

* * *

Details: 283.4 K; 101.33 kPa; Liquid; Vibrating tube method
recorded_endpoint: mass density (kg/m3)

| compound | reading_unit | endpoint_result |
| --- | --- | --- |
| CC(=O)[O-].C[NH2+]CCO [N-methyl-2-hydroxyethylammonium acetate] | kg/m3 | 1109.68 |
| CCC(=O)[O-].C[NH2+]CCO [2-hydroxy-N-methylethanaminium propionate] | kg/m3 | 1080.88 |
| CCCC(=O)[O-].C[NH2+]CCO [N-methyl-2-hydroxyethylammonium butanoate] | kg/m3 | 1049.19 |
| C[NH2+]CCO.O=C[O-] [2-hydroxy-N-methylethanaminium formate] | kg/m3 | 1136.49 |
| CC(C)C(=O)[O-].C[NH2+]CCO [2-hydroxy-N-methylethanaminium isobutyrate] | kg/m3 | 1052.76 |
| CCCCC(=O)[O-].C[NH2+]CCO [2-hydroxy-N-methylethanaminium pentanoate] | kg/m3 | 1026.17 |

* * *

Measured speed of sound, listed per entry.
Settings: 329.16 K; 101.33 kPa; Liquid; Pulse-echo method

| compound | reading_unit | speed of sound |
| --- | --- | --- |
| C[NH2+]CCO.O=C[O-] [2-hydroxy-N-methylethanaminium formate] | m/s | 1755.1 |
| CCCCC(=O)[O-].C[NH2+]CCO [2-hydroxy-N-methylethanaminium pentanoate] | m/s | 1453.2 |
| CCCC(=O)[O-].C[NH2+]CCO [N-methyl-2-hydroxyethylammonium butanoate] | m/s | 1517.4 |
| CCC(=O)[O-].C[NH2+]CCO [2-hydroxy-N-methylethanaminium propionate] | m/s | 1597.9 |
| CC(C)C(=O)[O-].C[NH2+]CCO [2-hydroxy-N-methylethanaminium isobutyrate] | m/s | 1523.5 |

* * *

Details: 304.65 K; 101.33 kPa; Liquid; Pulse-echo method

| compound | speed of sound / m/s |
| --- | --- |
| CCCCC(=O)[O-].C[NH2+]CCO [2-hydroxy-N-methylethanaminium pentanoate] | 1528.4 |
| CC(C)C(=O)[O-].C[NH2+]CCO [2-hydroxy-N-methylethanaminium isobutyrate] | 1592.9 |
| CCC(=O)[O-].C[NH2+]CCO [2-hydroxy-N-methylethanaminium propionate] | 1670.8 |
| CCCC(=O)[O-].C[NH2+]CCO [N-methyl-2-hydroxyethylammonium butanoate] | 1594 |
| C[NH2+]CCO.O=C[O-] [2-hydroxy-N-methylethanaminium formate] | 1802.7 |

* * *

Details: 302.15 K; 101.33 kPa; Liquid; Pulse-echo method

| molecule | speed of sound / m/s |
| --- | --- |
| CCCCC(=O)[O-].C[NH2+]CCO [2-hydroxy-N-methylethanaminium pentanoate] | 1536.2 |
| CCC(=O)[O-].C[NH2+]CCO [2-hydroxy-N-methylethanaminium propionate] | 1678.1 |
| CC(C)C(=O)[O-].C[NH2+]CCO [2-hydroxy-N-methylethanaminium isobutyrate] | 1600 |
| C[NH2+]CCO.O=C[O-] [2-hydroxy-N-methylethanaminium formate] | 1807.5 |
| CCCC(=O)[O-].C[NH2+]CCO [N-methyl-2-hydroxyethylammonium butanoate] | 1601.8 |

* * *

Measured mass density, listed per entry.
Settings: 315.41 K; 101.33 kPa; Liquid; Vibrating tube method

| molecule | mass density [kg/m3] |
| --- | --- |
| C[NH2+]CCO.O=C[O-] [2-hydroxy-N-methylethanaminium formate] | 1118.62 |
| CC(=O)[O-].C[NH2+]CCO [N-methyl-2-hydroxyethylammonium acetate] | 1090.41 |
| CCC(=O)[O-].C[NH2+]CCO [2-hydroxy-N-methylethanaminium propionate] | 1060.01 |
| CC(C)C(=O)[O-].C[NH2+]CCO [2-hydroxy-N-methylethanaminium isobutyrate] | 1032.18 |
| CCCC(=O)[O-].C[NH2+]CCO [N-methyl-2-hydroxyethylammonium butanoate] | 1027.61 |
| CCCCC(=O)[O-].C[NH2+]CCO [2-hydroxy-N-methylethanaminium pentanoate] | 1004.58 |
